# kon listing for each entry below
target: T1, recombinant human CD33 protein (Sino Biologicals) (human, UniProt P20138 18-259); experiment: BLI (ForteBio), antibody on anti-human Fc sensor, CD33 10 nM
T1 construct: Bought protein; also called recombinant CD33
T1 sequence (P20138 18-259 limits assumed): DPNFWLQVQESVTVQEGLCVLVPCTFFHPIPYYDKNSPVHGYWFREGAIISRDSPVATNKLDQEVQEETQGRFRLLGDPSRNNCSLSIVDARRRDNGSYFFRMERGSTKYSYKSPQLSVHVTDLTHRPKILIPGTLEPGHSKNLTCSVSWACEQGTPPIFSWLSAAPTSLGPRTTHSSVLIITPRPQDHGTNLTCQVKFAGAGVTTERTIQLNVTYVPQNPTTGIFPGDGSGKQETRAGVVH
Field: numeric (M⁻¹ s⁻¹). Do not append units.

anti-CD33 antibody 6C7H19 (antibody, V domains shown, VH/VL only) VH: EVQLVESGGGLVQPGGSLRLSCAGSGFTFSNYRMNWVRQAPGKGLEWVAEIRLKSNNYVTNYAASVKGRFTISRDDSKNSVYLQMNSLKTEDTGVYYCTRAGYYVPFAYWGQGTLVTVSS VL: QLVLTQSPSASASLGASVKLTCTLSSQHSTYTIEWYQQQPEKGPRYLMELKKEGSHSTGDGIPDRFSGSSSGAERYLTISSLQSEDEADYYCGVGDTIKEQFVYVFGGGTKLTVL ... 4.79e+06
anti-CD33 antibody 6C7H16 (antibody, V domains shown, VH/VL only) VH: EVQLVESGGGLVQPGGSLRLSCAGSGFTFSNYLMNWVRQAPGKGLEWVAEIRLKSNNYVTNYAASVKGRFTISRDDSKNSVYLQMNSLKTEDTGVYYCTRAGYYVPFAYWGQGTLVTVSS VL: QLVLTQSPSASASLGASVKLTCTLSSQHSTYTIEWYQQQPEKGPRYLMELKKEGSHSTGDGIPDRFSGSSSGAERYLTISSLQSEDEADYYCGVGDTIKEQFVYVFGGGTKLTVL ... 1.3e+06

Turning now to a further record.
Inquiry: Quick check: kon of anti-CD33 antibody 6C7H28 (antibody, V domains shown, VH/VL only) VH: EVQLVESGGGLVQPGGSLRLSCAGSGFTFSDYSMNWVRQAPGKGLEWVAEIRLKSNNYVTNYAASVKGRFTISRDDSKNSVYLQMNSLKTEDTGVYYCTRAGYYVPFAYWGQGTLVTVSS VL: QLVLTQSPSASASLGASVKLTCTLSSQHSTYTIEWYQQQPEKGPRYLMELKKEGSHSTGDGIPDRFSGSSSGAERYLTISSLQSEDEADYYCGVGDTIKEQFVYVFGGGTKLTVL ?
Reply text: 1.13e+06
